The measured values listed here are drawn from patent US6906205B2.

# Test system: ANKA strain of P. berghei
# experiment-notes: single dose STI in vivo screen in infected mice
# Design: species or system Plasmodium berghei
# experimental-setup: single 10 mg/kg po in 3% ethanol and 7% Tween 80; untreated control 5.6 ± 0.3
endpoint: Survival (days) po
Answer format: numeric, days implied, no suffix.

Below: 4 compounds and their reported Survival (days) po.
OC12CC3CC(C1)C1(OOC4(CCC5(CC4)OCCO5)O1)C(C3)C2 (centres unmarked) [OZ152] = 6.3
O=C(O)C1(C(=O)O)COC2(CCC3(CC2)OOC2(O3)C3CC4CC(C3)CC2C4)OC1 (centres unmarked) = 5.7
O=C(O)COCC(=O)N1CCC2(CC1)OOC1(O2)C2CC3CC(C2)CC1C3 (centres unmarked) = 5.7
Clc1ccc(C2CCC3(CC2)OOC2(O3)C3CC4CC(C3)CC2C4)cc1 (centres unmarked) = 12.7

Now take the following compound into account.
Qu. Give Survival (days) po for the following compound: O=C(Nc1ccc(Cl)cc1)N1CCC2(CC1)OOC1(O2)C2CC3CC(C2)CC1C3 (centres unmarked)
Ans. 6.0
